These measurements were taken from paper PMC9545781.

assay_text: Open-label clinical pharmacokinetic study of oral XBD173 and etifoxine in healthy volunteers (plasma LC-MSMS)
Type: in vivo, human
assay_setup: human, plasma, po, 90 mg, 90mg XBD173 single oral dose; 120 mins; participant 2
Experimental: This was a single centre, open‐label study enrolling 4 adult healthy volunteers (aged 35–65 y) irrespective of rs6971 genotype. Detailed inclusion and exclusion criteria are shown in the supplementary information. […] As a precaution, therefore, a long washout period was chosen. The first dose was taken at the clinical research facility and the participant was monitored for 4 hours. Subsequent doses were taken at home by the participant. On day 7, the participant returned for a final assessment. […]

compound	concentration at 120 min [ng/mL]
CCN(Cc1ccccc1)C(=O)Cn1c(=O)n(C)c2cnc(-c3ccccc3)nc21 [XBD173]	24.2

* * *

assay_text: Open-label clinical pharmacokinetic study of oral XBD173 and etifoxine in healthy volunteers (plasma LC-MSMS)
Format: in vivo, human
assay_setup: human, plasma, po, 90 mg, 90mg XBD173 single oral dose; 240 mins; Mean (SEM)

compound_string	concentration at 240 min (ng/mL)
CCN(Cc1ccccc1)C(=O)Cn1c(=O)n(C)c2cnc(-c3ccccc3)nc21	87.6

* * *

assay_text: Open-label clinical pharmacokinetic study of oral XBD173 and etifoxine in healthy volunteers (plasma LC-MSMS)
Type: in vivo, human
assay_setup: human, plasma, po, 50 mg, 50mg etifoxine single oral dose; 240 mins; participant 4
Description: This was a single centre, open‐label study enrolling 4 adult healthy volunteers (aged 35–65 y) irrespective of rs6971 genotype. Detailed inclusion and exclusion criteria are shown in the supplementary information. […] As a precaution, therefore, a long washout period was chosen. The first dose was taken at the clinical research facility and the participant was monitored for 4 hours. Subsequent doses were taken at home by the participant. On day 7, the participant returned for a final assessment. […]

molecule	concentration at 240 min / ng/mL
CCNC1=Nc2ccc(Cl)cc2C(C)(c2ccccc2)O1 (stereo not shown)	20.1

* * *

assay_text: Open-label clinical pharmacokinetic study of oral XBD173 and etifoxine in healthy volunteers (plasma LC-MSMS)
Assay type: in vivo, human
assay_setup: human, plasma, po, 90 mg, 90mg XBD173 single oral dose; 240 mins; participant 3
experimental_readout: concentration at 240 min (ng/mL)

compound_string	recorded_value
CCN(Cc1ccccc1)C(=O)Cn1c(=O)n(C)c2cnc(-c3ccccc3)nc21	139

* * *

assay_text: Open-label clinical pharmacokinetic study of oral XBD173 and etifoxine in healthy volunteers (plasma LC-MSMS)
Format: in vivo, human
assay_setup: human, plasma, po, 50 mg, 50 mg etifoxine single oral dose; plasma; Median of 4 participants; read-out: AUC0‐4 h

compound	unit_name	AUC
CCNC1=Nc2ccc(Cl)cc2C(C)(c2ccccc2)O1 (stereo not shown) [etifoxine]	ng·h/mL	68

* * *

assay_text: Open-label clinical pharmacokinetic study of oral XBD173 and etifoxine in healthy volunteers (plasma LC-MSMS)
Type: in vivo, human
assay_setup: human, plasma, po, 50 mg, 50 mg etifoxine single oral dose; Median of 4 participants
experimental_readout: Cmax (ng/mL)

compound	experimental_readout	recorded_value
CCNC1=Nc2ccc(Cl)cc2C(C)(c2ccccc2)O1 (stereo not shown) [etifoxine]	Cmax	32

* * *

assay_text: Open-label clinical pharmacokinetic study of oral XBD173 and etifoxine in healthy volunteers (plasma LC-MSMS)
Type: in vivo, human
assay_setup: human, plasma, po, 50 mg, 50 mg etifoxine single oral dose; participant 1

compound	Cmax / ng/mL
CCNC1=Nc2ccc(Cl)cc2C(C)(c2ccccc2)O1 (stereo not shown)	24

* * *

assay_text: Open-label clinical pharmacokinetic study of oral XBD173 and etifoxine in healthy volunteers (plasma LC-MSMS)
Assay type: in vivo, human
assay_setup: human, plasma, po, 50 mg, 50mg etifoxine single oral dose; 180 mins; participant 4

molecule	concentration at 180 min
CCNC1=Nc2ccc(Cl)cc2C(C)(c2ccccc2)O1 (stereo not shown)	27.9 ng/mL

* * *

assay_text: Open-label clinical pharmacokinetic study of oral XBD173 and etifoxine in healthy volunteers (plasma LC-MSMS)
Assay type: in vivo, human
assay_setup: human, plasma, po, 90 mg, 90 mg XBD173 single oral dose; participant 1

compound_string	unit_name	AUC(0-t)
CCN(Cc1ccccc1)C(=O)Cn1c(=O)n(C)c2cnc(-c3ccccc3)nc21	ng·h/mL	148

* * *

subject_of_test: UniProtKB P30536
Sequence (P30536 2-169): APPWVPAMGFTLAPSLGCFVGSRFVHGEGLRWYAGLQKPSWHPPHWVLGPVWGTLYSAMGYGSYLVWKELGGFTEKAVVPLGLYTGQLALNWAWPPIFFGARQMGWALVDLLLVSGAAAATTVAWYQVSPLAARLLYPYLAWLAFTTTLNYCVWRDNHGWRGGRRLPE
assay_text: Competition radioligand binding with [3H]PK11195 in human brain membranes
assay_setup: read-out: Affinity of etifoxine for TSPO estimated here; value used for the occupancy estimate
experimental_readout: Ki (µM)

compound	experimental_readout	recorded_value
CCNC1=Nc2ccc(Cl)cc2C(C)(c2ccccc2)O1 (stereo not shown)	Ki	7.6

* * *

assay_text: Open-label clinical pharmacokinetic study of oral XBD173 and etifoxine in healthy volunteers (plasma LC-MSMS)
Format: in vivo, human
assay_setup: human, plasma, po, 50 mg, 50mg etifoxine single oral dose; 30 mins; participant 2
experimental_readout: concentration at 30 min (ng/mL)

molecule	unit_name	recorded_value
CCNC1=Nc2ccc(Cl)cc2C(C)(c2ccccc2)O1 (stereo not shown) [etifoxine]	ng/mL	4

* * *

assay_text: Open-label clinical pharmacokinetic study of oral XBD173 and etifoxine in healthy volunteers (plasma LC-MSMS)
Assay type: in vivo, human
assay_setup: human, plasma, po, 50 mg, 50mg etifoxine single oral dose; 60 mins; participant 4

molecule	concentration at 60 min / ng/mL
CCNC1=Nc2ccc(Cl)cc2C(C)(c2ccccc2)O1 (stereo not shown)	2.4

* * *

assay_text: Open-label clinical pharmacokinetic study of oral XBD173 and etifoxine in healthy volunteers (plasma LC-MSMS)
Type: in vivo, human
assay_setup: human, plasma, po, 50 mg, 50mg etifoxine single oral dose; 120 mins; participant 3

molecule	concentration at 120 min
CCNC1=Nc2ccc(Cl)cc2C(C)(c2ccccc2)O1 (stereo not shown) [etifoxine]	39.4 ng/mL

* * *

assay_text: Open-label clinical pharmacokinetic study of oral XBD173 and etifoxine in healthy volunteers (plasma LC-MSMS)
Format: in vivo, human
assay_setup: human, plasma, po, 50 mg, 50mg etifoxine single oral dose; 240 mins; participant 1

compound	concentration at 240 min
CCNC1=Nc2ccc(Cl)cc2C(C)(c2ccccc2)O1 (stereo not shown)	22.7 ng/mL

* * *

assay_text: Open-label clinical pharmacokinetic study of oral XBD173 and etifoxine in healthy volunteers (plasma LC-MSMS)
Assay type: in vivo, human
assay_setup: human, plasma, po, 90 mg, 90 mg XBD173 single oral dose; participant 1
Description: This was a single centre, open‐label study enrolling 4 adult healthy volunteers (aged 35–65 y) irrespective of rs6971 genotype. Detailed inclusion and exclusion criteria are shown in the supplementary information. […] As a precaution, therefore, a long washout period was chosen. The first dose was taken at the clinical research facility and the participant was monitored for 4 hours. Subsequent doses were taken at home by the participant. On day 7, the participant returned for a final assessment. […]
experimental_readout: Cmax (ng/mL)

compound_string	experimental_readout	recorded_value
CCN(Cc1ccccc1)C(=O)Cn1c(=O)n(C)c2cnc(-c3ccccc3)nc21	Cmax	56

* * *

assay_text: Open-label clinical pharmacokinetic study of oral XBD173 and etifoxine in healthy volunteers (plasma LC-MSMS)
Type: in vivo, human
assay_setup: human, plasma, po, 90 mg, 90mg XBD173 single oral dose; 30 mins; participant 2
experimental_readout: concentration at 30 min (ng/mL)

compound_string	experimental_readout	unit_name	recorded_value
CCN(Cc1ccccc1)C(=O)Cn1c(=O)n(C)c2cnc(-c3ccccc3)nc21	concentration at 30 min	ng/mL	5.7

* * *

assay_text: Open-label clinical pharmacokinetic study of oral XBD173 and etifoxine in healthy volunteers (plasma LC-MSMS)
Format: in vivo, human
assay_setup: human, plasma, po, 90 mg, 90 mg XBD173 single oral dose; participant 2
experimental_readout: AUC(0-t) (ng·h/mL)

compound_string	unit_name	recorded_value
CCN(Cc1ccccc1)C(=O)Cn1c(=O)n(C)c2cnc(-c3ccccc3)nc21	ng·h/mL	74

* * *

assay_text: Open-label clinical pharmacokinetic study of oral XBD173 and etifoxine in healthy volunteers (plasma LC-MSMS)
Type: in vivo, human
assay_setup: human, plasma, po, 50 mg, 50mg etifoxine single oral dose; 60 mins; participant 3
experimental_readout: concentration at 60 min (ng/mL)

compound	recorded_value
CCNC1=Nc2ccc(Cl)cc2C(C)(c2ccccc2)O1 (stereo not shown) [etifoxine]	6.2

* * *

assay_text: Open-label clinical pharmacokinetic study of oral XBD173 and etifoxine in healthy volunteers (plasma LC-MSMS)
Assay type: in vivo, human
assay_setup: human, plasma, po, 50 mg, 50 mg etifoxine single oral dose; plasma; participant 2; read-out: AUC0‐4 h

compound	unit_name	AUC
CCNC1=Nc2ccc(Cl)cc2C(C)(c2ccccc2)O1 (stereo not shown)	ng·h/mL	64

* * *

assay_text: Open-label clinical pharmacokinetic study of oral XBD173 and etifoxine in healthy volunteers (plasma LC-MSMS)
Type: in vivo, human
assay_setup: human, plasma, po, 50 mg, 50 mg etifoxine single oral dose; participant 3
experimental_readout: Tmax (h)

compound	experimental_readout	recorded_value
CCNC1=Nc2ccc(Cl)cc2C(C)(c2ccccc2)O1 (stereo not shown)	Tmax	2

* * *

assay_text: Open-label clinical pharmacokinetic study of oral XBD173 and etifoxine in healthy volunteers (plasma LC-MSMS)
Format: in vivo, human
assay_setup: human, plasma, po, 90 mg, 90mg XBD173 single oral dose; 240 mins; participant 2

compound_string	concentration at 240 min, ng/mL
CCN(Cc1ccccc1)C(=O)Cn1c(=O)n(C)c2cnc(-c3ccccc3)nc21	24.5
